system: cells; experiment: Cytotoxicity / lactate dehydrogenase assay and visual observation of cells; type: cell-based; settings: at 10 uM

COMPOUND	STUDY_SYSTEM	cell death under Inflammation Data
COc1ccc(Nc2nc(NC3CCCCCC3)nc(OCC3CCCN3C)n2)cc1Cl (stereo not shown)	cells	total cell death
COc1ccc(Nc2nc(NC3CCCCCC3)nc(NC3CCN(Cc4ccccc4)CC3)n2)cc1F	cells	total cell death
COc1ccc(Nc2nc(NC3CCCCCC3)nc(OC3CCN(C)CC3)n2)cc1Cl	cells	total cell death
COc1ccc(Nc2nc(NC3CCCCCC3)nc(OC3CCCNC3)n2)cc1Cl (stereo not shown)	cells	20%

---

system: cells; experiment: Cytotoxicity / lactate dehydrogenase assay and visual observation of cells; format: cell-based; details: at 5 uM
ASSAY_READOUT: cell death under Inflammation Data

MOLECULE	STUDY_SYSTEM	cell death under Inflammation Data
COc1ccc(Nc2nc(NC3CCCCCC3)nc(NC3CCN(Cc4ccccc4)CC3)n2)cc1Cl [drawing 1010]	cells	20%
COc1ccc(Nc2nc(NC3CCCCCC3)nc(N3CCN(C)CC3)n2)cc1Cl	cells	25%
COc1ccc(Nc2nc(NC3CCCCCC3)nc(NC3CCNCC3)n2)cc1	cells	20%

Below: the item to evaluate.
Data request: Param item = `COc1ccc(Nc2nc(NC3CCCCCC3)nc(NC3CCN(Cc4ccccc4)CC3)n2)cc1F` ; retrieve measured cell death under Inflammation Data.
Data returned: 25%

---

test system: cells; test: Cytotoxicity / lactate dehydrogenase assay and visual observation of cells; type: cell-based; conditions: 10 uM

COMPOUND	cell death under Inflammation Data
CN(c1nc(Nc2ccc(OCc3ccccc3)c(Cl)c2)nc(NC2CCCCCC2)n1)C1CCNCC1	total cell death
CN(c1nc(Nc2ccc(O)cc2)nc(NC2CCCCCC2)n1)C1CCNCC1	total cell death
COc1ccc(Nc2nc(NC3CC3)nc(N(C)C3CCN(C)CC3)n2)cc1Cl	15%
CN1CCC(N(C)c2nc(Nc3ccc(O)c(Cl)c3)nc(NC3CCCCCC3)n2)CC1 [drawing 1008]	total cell death

---

Below, each of the molecules is paired with its reported cell death under Inflammation Data value.
system: cells; test: Cytotoxicity / lactate dehydrogenase assay and visual observation of cells; assay type: cell-based; conditions: at 10 uM
Numeric answer only, unit % assumed.

SMI	STUDY_SYSTEM	cell death under Inflammation Data / %
CCc1occc(=O)c1Oc1nc(Nc2ccc(OC)c(Cl)c2)nc(NC2CCCCCC2)n1	cells	20

Data request: Param item = `COc1ccc(Nc2nc(NC3CCCCCC3)nc(OC3CCNCC3)n2)cc1Cl` ; retrieve measured cell death under Inflammation Data.
Data returned: 20

---

test system: Human aortic smooth muscle cells; assay: Smooth muscle cell proliferation assay (anti-proliferation assay, perlecan); format: cell-based; conditions: Homo sapiens, anti-proliferation assay (perlecan); read-out: Activity (note 1)
ASSAY_READOUT: IC50

Consider the following illustrative entries.
COMPOUND	IC50
COc1ccc(Nc2nc(Cl)nc(NC3CCCCCC3)n2)cc1F	> 7 µM
COc1ccc(Nc2nc(Cl)nc(NCC3CCCCC3)n2)cc1F	> 7 µM
CCN1CCCC1CNc1nc(Nc2ccc(OC)c(Cl)c2)nc(NC2CN3CCC2CC3)n1 (stereo not shown)	3 to 7 µM
COc1ccc(Nc2nc(NC3CCCCCC3)nc(N(C)C3CCN(C)CC3)n2)cc1Br	> 7 µM
CCN(CC)c1ccc(Nc2nc(NCC3CCCN3CC)nc(NC3CCCCCC3)n2)cc1Cl (stereo not shown)	> 7 µM
COc1ccc(Nc2nc(NC3CCCCCC3)nc(N(C)C3CCNCC3)n2)cc1Cl	< 3 µM
COc1ccc(Nc2nc(NC3CCCCCC3)nc(N(C)C3CCNCC3)n2)cc1F	3 to 7 µM
CCCC(CCC)Nc1nc(Nc2ccc(OC)c(Cl)c2)nc(N(C)C2CCN(C)CC2)n1	> 7 µM

Data request: Param item = `COc1ccc(Nc2nc(NCC3CCCCC3)nc(N(C)C3CCN(C)CC3)n2)cc1Cl` ; retrieve measured IC50.
Data returned: > 7 µM

Data request: // query: CCN1CCCC1CNc1nc(Nc2ccc(OC)c(F)c2)nc(NC2CCCCCC2)n1 (stereo not shown)
Data returned: > 7 µM

Data request: // query: `CN1CCC(N(C)c2nc(Nc3ccc(O)c(Cl)c3)nc(NC3CCCCCC3)n2)CC1`
Data returned: 3 to 7 µM

Data request: // query: `COc1ccc(Nc2nc(NC3CCCCCC3)nc(N(C)C3CCN(C)CC3)n2)cc1Cl`
Data returned: 3 to 7 µM

Data request: // query: `COc1ccc(Nc2nc(NC3CCCCCC3)nc(NC3CCNCC3)n2)cc1Cl`
Data returned: 3 to 7 µM
